Endpoint summary: pIC50, system: Serine/threonine-protein kinase mTOR (Homo sapiens), multiple sources combined.
pIC50: −log10 of the molar value.
quantity: pIC50

> print(dat)
                                    molecule                                    target     obs.value
 1  CN1CCN(c2ccc(-n3c(-c4cc(-c5cnc6[nH]c(C(C)(C)C)cc6c5)ccn4)cn(C)c3=O)cc2C(F)(F)F)CC1  Serine/threonine-protein kinase mTOR (Homo sapiens)  5.00 to 7.00
 2  C#Cc1cnc2ccc(-c3cnc(OC)c(NS(=O)(=O)c4ccc(F)cc4)c3)nn12  Serine/threonine-protein kinase mTOR (Homo sapiens)          7.64
 3  CO[C@H]1CCO[C@@H](Cn2c(=O)[nH]c3ncc(-c4cnc5[nH]ccc5c4C)cc32)C1  Serine/threonine-protein kinase mTOR (Homo sapiens)        > 7.30
 4  Cc1cn(C2CCN(C(=O)c3nnc[nH]3)CC2)c2nc3c(-c4cnc5ccc(F)cc5c4)cnn3c(N)c12  Serine/threonine-protein kinase mTOR (Homo sapiens)        > 8.00
 5  O=c1[nH]c2ncc(-c3cnc4[nH]cc(C(F)(F)F)c4c3)cc2n1CC1CCOCC1  Serine/threonine-protein kinase mTOR (Homo sapiens)        > 7.30
 6  Cc1c(-c2cnc3[nH]c(=O)n(C[C@H]4CC[C@@H](O)CO4)c3c2)cnc2[nH]cc(Cl)c12  Serine/threonine-protein kinase mTOR (Homo sapiens)        > 7.30
 7  COc1cc(-c2cccc(NS(=O)(=O)CCCF)c2F)cc2c(N3CCOCC3)nc(-c3ccc(NC(C)=O)nc3)nc12  Serine/threonine-protein kinase mTOR (Homo sapiens)  6.00 to 7.00
 8  Cc1ccc(S(=O)(=O)NCCC(C)(C)O)cc1-c1cncc(-c2cnn(CCN3CCOCC3)c2)n1  Serine/threonine-protein kinase mTOR (Homo sapiens)        < 5.04
 9  Cc1nn(C)cc1-n1c(=O)n(C)c2cnc3ccc(-c4ccc(OCCCO)nc4)cc3c21  Serine/threonine-protein kinase mTOR (Homo sapiens)          7.22
10  Cc1nn(C)cc1-n1c(=O)n(C)c2cnc3ccc(-c4ccc(N5CCC5)nc4)cc3c21  Serine/threonine-protein kinase mTOR (Homo sapiens)          7.74
11  CCn1cc(-n2c(=O)n(C)c3cnc4ccc(-c5cnc(COC)c(OC)c5)cc4c32)c(C)n1  Serine/threonine-protein kinase mTOR (Homo sapiens)          7.12
12  C[C@@H]1COCCN1c1nc(-c2cnc(N)cc2F)nc2ccc(-c3cccc(NS(=O)(=O)CCCF)c3F)nc12  Serine/threonine-protein kinase mTOR (Homo sapiens)  6.00 to 7.00
13  CN(C)C(=O)c1ccc(NC(=O)Nc2ccc(-c3nc(N4CCOCC4)c4ccc(CN5CCC(O)CC5)cc4n3)cc2)cc1  Serine/threonine-protein kinase mTOR (Homo sapiens)  6.70 to 7.30
14  Nc1ncc(-c2cc(N3CCOCC3)cc(S(=O)(=O)Cc3ccccc3)c2)cn1  Serine/threonine-protein kinase mTOR (Homo sapiens)          5.52
15  O=C1CCOCC1Cn1c(=O)[nH]c2ncc(-c3cnc4[nH]ccc4c3)cc21 (stereo not drawn)  Serine/threonine-protein kinase mTOR (Homo sapiens)        > 7.30
16  CN(C)C(=O)c1ccc(NC(=O)Nc2ccc(-c3nc(N4CCOCC4)c4ccc(-c5ccc(C#N)o5)cc4n3)cc2)cc1  Serine/threonine-protein kinase mTOR (Homo sapiens)        > 7.30
17  O=C([C@H](O)CO)N1CCC(c2nc3c(-c4ccc(-c5ccccc5)nc4)cnn3c3[nH]ccc23)CC1  Serine/threonine-protein kinase mTOR (Homo sapiens)  8.00 to 9.00
18  COCc1ncc(-c2ccc3ncc4c(c3c2)n(-c2cn(C)nc2Cl)c(=O)n4C)cc1OC  Serine/threonine-protein kinase mTOR (Homo sapiens)          8.10
19  Cc1nn(C)cc1-n1c(=O)n(C)c2cnc3ccc(-c4cnc(CO)c(OC(C)C)c4)cc3c21  Serine/threonine-protein kinase mTOR (Homo sapiens)          7.43
20  CC(C)[C@@H](CO)n1c(=O)[nH]c2ncc(-c3cccc4ncccc34)nc21  Serine/threonine-protein kinase mTOR (Homo sapiens)        < 4.52
21  CN(C)C(=O)c1ccc(NC(=O)Nc2ccc(-c3nc(N4CCOCC4)c4ncc(-c5cccnc5)cc4n3)cc2)cc1F  Serine/threonine-protein kinase mTOR (Homo sapiens)        > 7.30
22  CC(C)Oc1cncc(-c2ccc3ncc4c(c3c2)n(-c2cn(C)nc2Cl)c(=O)n4C)c1  Serine/threonine-protein kinase mTOR (Homo sapiens)          8.52
23  Cn1cc(-c2cc(-c3cnc4[nH]ccc4c3)ccn2)n(-c2ccc(C(C)(C)C(N)=O)cc2)c1=O  Serine/threonine-protein kinase mTOR (Homo sapiens)  5.00 to 7.00
24  CC1c2c(nc(-c3ccc(NC(=O)NC4CC4)cc3)nc2N2CCOC[C@@H]2C)CCS1(=O)=O (stereo partly drawn)  Serine/threonine-protein kinase mTOR (Homo sapiens)        > 7.00
25  COc1cc(-c2cccc(NS(=O)(=O)CCCF)c2F)cc2c(N3CCOC[C@H]3C)nc(-c3cnc(N)cc3F)nc12  Serine/threonine-protein kinase mTOR (Homo sapiens)  7.00 to 9.00
26  O=S1(=O)CCN(c2nc3c(-c4cnc5ccccc5c4)cnn3c3[nH]ccc23)CC1  Serine/threonine-protein kinase mTOR (Homo sapiens)  8.00 to 9.00
27  CO[C@@H]1CCN(c2ccc(-c3ccc4ncc5c(c4c3)n(-c3cn(C)nc3C)c(=O)n5C)cn2)C1  Serine/threonine-protein kinase mTOR (Homo sapiens)          6.43
28  Cn1cc(-n2c(=O)n(C)c3cnc4ccc(-c5cncc(C(C)(C)C#N)c5)cc4c32)c(Cl)n1  Serine/threonine-protein kinase mTOR (Homo sapiens)          8.30
29  Cc1nc(N)ncc1-c1nc(N2CCOCC2)c2nc(N3C[C@@H](C)N[C@@H](C)C3)n(CC3CC3)c2n1  Serine/threonine-protein kinase mTOR (Homo sapiens)  6.30 to 7.00
30  CCn1cc(-n2c(=O)n(C)c3cnc4ccc(-c5ccc(CO)nc5)cc4c32)c(C)n1  Serine/threonine-protein kinase mTOR (Homo sapiens)          7.47
